Where these numbers come from: paper PMC6071684

# Tested System: ComD2 receptor (Streptococcus pneumoniae serotype 4, UniProt A0A0H2US84)
# Protocol Description: cell-based
Where no end group is shown, it is not given here.
Measurement Name: EC50

Prompt: Consider the substance shown here: EMRISKFFRDFILQRKK-OH [CSP1-L4I] What is its recorded EC50?
Completion: > 1000 nM

* * *

# Tested System: ComD2 receptor (Streptococcus pneumoniae serotype 4)
# Protocol Description: cell-based
pEC50: −log10 of the molar value.
Measurement Name: pEC50

Prompt: Need pEC50 of `CC[C@H](C)[C@H](NC(=O)[C@H](Cc1ccccc1)NC(=O)[C@H](CC(=O)O)NC(=O)[C@H](CCCNC(=N)N)NC(=O)[C@H](CCc1ccccc1)NC(=O)[C@H](Cc1ccccc1)NC(=O)[C@H](CCCCN)NC(=O)[C@H](CO)NC(=O)[C@H](CC(C)C)NC(=O)[C@H](CCCNC(=N)N)NC(=O)[C@H](CCSC)NC(=O)[C@@H](N)CCC(=O)O)C(=O)N[C@@H](CC(C)C)C(=O)N[C@@H](CCC(N)=O)C(=O)N[C@@H](CCCNC(=N)N)C(=O)N[C@@H](CCCCN)C(=O)N[C@@H](CCCCN)C(=O)O` , thanks.
Completion: < 6.00

Prompt: Need pEC50 of `CCCC[C@H](NC(=O)[C@H](CCCNC(=N)N)NC(=O)[C@H](CCSC)NC(=O)[C@@H](N)CCC(=O)O)C(=O)N[C@@H](CO)C(=O)N[C@@H](CCCCN)C(=O)N[C@@H](Cc1ccccc1)C(=O)N[C@@H](Cc1ccccc1)C(=O)N[C@@H](CCCNC(=N)N)C(=O)N[C@@H](CC(=O)O)C(=O)N[C@@H](Cc1ccccc1)C(=O)N[C@H](C(=O)N[C@@H](CC(C)C)C(=O)N[C@@H](CCC(N)=O)C(=O)N[C@@H](CCCNC(=N)N)C(=O)N[C@@H](CCCCN)C(=O)N[C@@H](CCCCN)C(=O)O)[C@@H](C)CC` , thanks.
Completion: < 6.00
